Assay: Storage experiment, influence of temperature on stability of crystalline form A (HPLC purity, XRD form)
Type: physicochemical
Conditions: solid storage, 25 °C, 12 weeks; HPLC, 1 mg/2mL ACN
measuredProperty: remaining at 2016 h (%)
The reply should be a number in %, with the unit left off.

Q) What value of remaining at 2016 h has been recorded for this entry: CN(C(=O)c1cc(-c2cnn(-c3c(Cl)cc(C(F)(C(F)(F)F)C(F)(F)F)cc3Cl)c2)cnc1Cl)C1CC1 [crystalline form A]
A) 99.3

----------
Assay: Quantitative solubility in solvents, stepwise solvent addition with visual check
Assay type: physicochemical
Conditions: propylene carbonate, organic solvent or mixture, propylene carbonate; entry 2; slurry 1 week; read-out: solubility (concentration in solvent)
measuredProperty: solubility (mg/mL)
The reply should be a number in mg/mL, with the unit left off.

Q) What value of solubility has been recorded for this entry: CN(C(=O)c1cc(-c2cnn(-c3c(Cl)cc(C(F)(C(F)(F)F)C(F)(F)F)cc3Cl)c2)cnc1Cl)C1CC1
A) 276

----------
Assay: Quantitative solubility in solvents, stepwise solvent addition with visual check
Assay type: physicochemical
Settings: cyclohexane, organic solvent or mixture, cyclohexane (anti-solvent, not completely dissolved); entry 8; slurry 1 week; read-out: solubility (concentration in solvent)
measuredProperty: solubility (mg/mL)
The reply should be a number in mg/mL, with the unit left off.

Q) What value of solubility has been recorded for this entry: CN(C(=O)c1cc(-c2cnn(-c3c(Cl)cc(C(F)(C(F)(F)F)C(F)(F)F)cc3Cl)c2)cnc1Cl)C1CC1
A) 19

----------
Experiment: Storage experiment, influence of temperature on stability of crystalline form A (HPLC purity, XRD form)
Assay type: physicochemical
Conditions: solid storage, 25 °C, 4 weeks; HPLC, 1 mg/2mL ACN
measuredProperty: remaining at 672 h (%)
The reply should be a number in %, with the unit left off.

Q) What value of remaining at 672 h has been recorded for this entry: CN(C(=O)c1cc(-c2cnn(-c3c(Cl)cc(C(F)(C(F)(F)F)C(F)(F)F)cc3Cl)c2)cnc1Cl)C1CC1 [crystalline form A]
A) 98.3

----------
Assay: Storage experiment, influence of temperature on stability of crystalline form A (HPLC purity, XRD form)
Type: physicochemical
Conditions: solid storage, 25 °C, 24 weeks; HPLC, 1 mg/2mL ACN
measuredProperty: remaining at 4032 h (%)
The reply should be a number in %, with the unit left off.

Q) What value of remaining at 4032 h has been recorded for this entry: CN(C(=O)c1cc(-c2cnn(-c3c(Cl)cc(C(F)(C(F)(F)F)C(F)(F)F)cc3Cl)c2)cnc1Cl)C1CC1 [crystalline form A]
A) 99.4

----------
Assay: Storage experiment, influence of humidity on stability of crystalline form A (HPLC purity, XRD form)
Type: physicochemical
Conditions: solid storage, 85% rh, 25 °C, 24 weeks; HPLC, 1 mg/2mL ACN
measuredProperty: remaining at 4032 h (%)
The reply should be a number in %, with the unit left off.

Q) What value of remaining at 4032 h has been recorded for this entry: CN(C(=O)c1cc(-c2cnn(-c3c(Cl)cc(C(F)(C(F)(F)F)C(F)(F)F)cc3Cl)c2)cnc1Cl)C1CC1 [crystalline form A]
A) 99.4

----------
Experiment: Quantitative solubility in solvents, stepwise solvent addition with visual check
Assay type: physicochemical
Conditions: ethanol, organic solvent or mixture, EtOH; entry 5; evaporation at ambient conditions; read-out: solubility (concentration in solvent)
measuredProperty: solubility (mg/mL)
The reply should be a number in mg/mL, with the unit left off.

Q) What value of solubility has been recorded for this entry: CN(C(=O)c1cc(-c2cnn(-c3c(Cl)cc(C(F)(C(F)(F)F)C(F)(F)F)cc3Cl)c2)cnc1Cl)C1CC1
A) 25

----------
Test: Storage experiment, influence of humidity on stability of crystalline form A (HPLC purity, XRD form)
Assay type: physicochemical
Details: solid storage, 85% rh, 25 °C, 12 weeks; HPLC, 1 mg/2mL ACN
measuredProperty: remaining at 2016 h
Please don't drop the unit; write it after the number.

Q) What value of remaining at 2016 h has been recorded for this entry: CN(C(=O)c1cc(-c2cnn(-c3c(Cl)cc(C(F)(C(F)(F)F)C(F)(F)F)cc3Cl)c2)cnc1Cl)C1CC1 [crystalline form A]
A) 99.3%

----------
Experiment: Quantitative solubility in solvents, stepwise solvent addition with visual check
Format: physicochemical
Details: acetonitrile, organic solvent or mixture, acetonitrile; entry 14; evaporation at ambient conditions; read-out: solubility (concentration in solvent)
measuredProperty: solubility (mg/mL)
The reply should be a number in mg/mL, with the unit left off.

Q) What value of solubility has been recorded for this entry: CN(C(=O)c1cc(-c2cnn(-c3c(Cl)cc(C(F)(C(F)(F)F)C(F)(F)F)cc3Cl)c2)cnc1Cl)C1CC1
A) 30

----------
Test: Quantitative solubility in solvents, stepwise solvent addition with visual check
Assay type: physicochemical
Details: isopropyl alcohol/propylene carbonate 65:35, organic solvent or mixture, isopropyl alcohol/propylene carbonate 65:35 %w/w; entry 3; slurry 1 week; read-out: solubility (concentration in solvent)
measuredProperty: solubility (mg/mL)
The reply should be a number in mg/mL, with the unit left off.

Q) What value of solubility has been recorded for this entry: CN(C(=O)c1cc(-c2cnn(-c3c(Cl)cc(C(F)(C(F)(F)F)C(F)(F)F)cc3Cl)c2)cnc1Cl)C1CC1 [compound of formula (I)]
A) 268

----------
Experiment: Storage experiment, influence of temperature on stability of crystalline form A (HPLC purity, XRD form)
Assay type: physicochemical
Settings: solid storage, 50 °C, 24 weeks; HPLC, 1 mg/2mL ACN
measuredProperty: remaining at 4032 h (%)
The reply should be a number in %, with the unit left off.

Q) What value of remaining at 4032 h has been recorded for this entry: CN(C(=O)c1cc(-c2cnn(-c3c(Cl)cc(C(F)(C(F)(F)F)C(F)(F)F)cc3Cl)c2)cnc1Cl)C1CC1 [crystalline form A]
A) 99.4

----------
Experiment: Storage experiment, influence of temperature on stability of crystalline form A (HPLC purity, XRD form)
Type: physicochemical
Settings: solid storage, 50 °C, 12 weeks; HPLC, 1 mg/2mL ACN
measuredProperty: remaining at 2016 h
Please don't drop the unit; write it after the number.

Q) What value of remaining at 2016 h has been recorded for this entry: CN(C(=O)c1cc(-c2cnn(-c3c(Cl)cc(C(F)(C(F)(F)F)C(F)(F)F)cc3Cl)c2)cnc1Cl)C1CC1 [crystalline form A]
A) 99.5%

----------
Test: Quantitative solubility in solvents, stepwise solvent addition with visual check
Assay type: physicochemical
Details: isopropyl alcohol/propylene carbonate 65:35, organic solvent or mixture, isopropyl alcohol/propylene carbonate 65:35 %w/w; entry 4; evaporation 50°C; read-out: solubility (concentration in solvent)
Protocol: The solubility of the active provided in Example 1 was further investigated in various solvents (entry 1 to 14 of Table 6). For the determination of the quantitative solubility, the respective solvent(-mixture) was added to approx. 40 mg of the solid, up to a maximum solvent addition of 2 mL in 50 - 200 µL steps. The vials were sealed between each addition of the solvent and the solubility was checked visually. […]
measuredProperty: solubility (mg/mL)
The reply should be a number in mg/mL, with the unit left off.

Q) What value of solubility has been recorded for this entry: CN(C(=O)c1cc(-c2cnn(-c3c(Cl)cc(C(F)(C(F)(F)F)C(F)(F)F)cc3Cl)c2)cnc1Cl)C1CC1
A) 93

----------
Experiment: Storage experiment, influence of humidity on stability of crystalline form A (HPLC purity, XRD form)
Format: physicochemical
Conditions: solid storage, 85% rh, 25 °C, 4 weeks; HPLC, 1 mg/2mL ACN
measuredProperty: remaining at 672 h (%)
The reply should be a number in %, with the unit left off.

Q) What value of remaining at 672 h has been recorded for this entry: CN(C(=O)c1cc(-c2cnn(-c3c(Cl)cc(C(F)(C(F)(F)F)C(F)(F)F)cc3Cl)c2)cnc1Cl)C1CC1 [crystalline form A]
A) 99

----------
Assay: Quantitative solubility in solvents, stepwise solvent addition with visual check
Type: physicochemical
Conditions: water, H2O (anti-solvent, not completely dissolved); entry 6; slurry 1 week; read-out: solubility (concentration in solvent)
measuredProperty: solubility
Please don't drop the unit; write it after the number.

Q) What value of solubility has been recorded for this entry: CN(C(=O)c1cc(-c2cnn(-c3c(Cl)cc(C(F)(C(F)(F)F)C(F)(F)F)cc3Cl)c2)cnc1Cl)C1CC1
A) 19 mg/mL
